Test: chemical genetic growth profiling, strain panel (AID 1159580);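 note: tested at 20 µM; growth read once vehicle control cultures reached saturation at 30 °C; 1 = growth at the plate median or of vehicle wells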
Settings: S. cerevisiae deletion strains, growth OD, locus YPL055C, strain LGE1, hits give low values
Out of some 5,500 compounds screened, about 2,000 (36%) were called active. Another 18% or so got no clear call; they are omitted. This is one part of the list.
Rule for this label: Y means normalized growth is less than 1; N means normalized growth is at least 1.

Prompt: Please indicate whether the reported normalized growth of OC(CSc1ccccc1)CN1CCN(c2ccc(C(F)(F)F)cn2)CC1 (centres undefined) is strictly below 1.
Response: Y

Prompt: Please indicate whether the reported normalized growth of N#C/C(=C\N(CCS(=O)(=O)c1ccc(Cl)cc1)Cc1cccs1)S(=O)(=O)c1ccc(Cl)cc1 is strictly below 1.
Response: N

Prompt: Please indicate whether the reported normalized growth of C=CCn1c(COc2c(Br)cc(C)c3c2CCC3)n[nH]c1=S is strictly below 1.
Response: N

Prompt: Please indicate whether the reported normalized growth of COc1cc(/C=C2/SC(=S)NC2=O)cc(OC)c1OC is strictly below 1.
Response: Y

Prompt: Please indicate whether the reported normalized growth of COc1cc(/C=C2/N=C(c3ccccc3I)OC2=O)cc(OC)c1OC is strictly below 1.
Response: N

Prompt: Please indicate whether the reported normalized growth of O=C1C=C(Cl)CC(c2ccc(C(F)(F)F)cc2)C1 (centres undefined) is strictly below 1.
Response: N

###

Assay: chemical genetic growth profiling, strain panel (AID 1159580);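 note: tested at 20 µM; growth read once vehicle control cultures reached saturation at 30 °C; 1 = growth at the plate median or of vehicle wells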
Details: S. cerevisiae deletion strains, growth OD, locus YPL055C, strain LGE1, hits give low values
The whole screen tested about 5,500 compounds, of which about 2,000 (36%) were called active. Not shown: some 18% with an inconclusive outcome. The list shows a part of the results.
measurementType: normalized growth
Reply briefly: the number, and no unit.

Please review the entries below; each comes with its answer.
Prompt: Please give the measured normalized growth for this compound: Cc1nc(N=Nc2ccc(S(=O)(=O)O)cc2S(=O)(=O)O)c(COP(=O)(O)O)c(C=O)c1O
Response: 1

Prompt: Please give the measured normalized growth for this compound: COc1ccccc1N1CCN(CC(O)COc2cccc3ccccc23)CC1 (stereo not drawn)
Response: 0.976

Prompt: Please give the measured normalized growth for this compound: C[C@]12CCC(=O)C=C1CCC1C2[C@@H](O)C[C@@]2(C)C1CC[C@]2(O)C(=O)COC(=O)CCC(=O)O (stereo partly drawn)
Response: 1.01

Here is the next item to consider.
Prompt: Please give the measured normalized growth for this compound: NCCc1c[nH]c2ccccc12
Response: 0.99

###

Parameter: normalized growth. Scope: all listed entries.
Assay: chemical genetic growth profiling, strain panel (AID 1159580);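 note: tested at 20 µM; growth read once vehicle control cultures reached saturation at 30 °C; 1 = growth at the plate median or of vehicle wells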
Details: S. cerevisiae deletion strains, growth OD, locus YPL055C, strain LGE1, hits give low values
Among all 5,500 compounds or so, about 2,000 (36%) were called active. Inconclusive results (about 18%) are left out. The list shows a part of the results.
Reply briefly: the number, and no unit.

Prompt: Please give the measured normalized growth for this compound: COc1cc(-c2oc3cc(O)ccc3c(=O)c2O)cc(OC)c1OC
Response: 1

Prompt: Please give the measured normalized growth for this compound: CCc1cccc2c3c([nH]c12)C(CC)(CC(=O)O)OCC3 (centres undefined)
Response: 0.989

Prompt: Please give the measured normalized growth for this compound: CN1CCN(CC(=O)N2c3ccccc3C(=O)Nc3cccnc32)CC1
Response: 1.01

Next:
Prompt: Please give the measured normalized growth for this compound: c1ccc([C@H]2CN3CCSC3=N2)cc1
Response: 0.98
